For each of the compounds below, state its Z-AUC.
Experiment: qHTS drug screen for cell cycle checkpoint inhibitors in PARPi-resistant BRCA-mutant ovarian cancer cell lines. (AID 1963452)
Conditions: PEO1/OlaR viability, CellTiter-Glo luminescence, 96 h; measured here: PEO1 parental Z-AUC; stronger effect = lower value
Source text: Women's Malignancies Branch, Center for Cancer Research (CCR), National Cancer Institute (NCI), National Institutes of Health (NIH), Bethesda, MD Poly (ADP-ribose) polymerase inhibitors (PARPis) have changed the treatment paradigm in breast cancer gene (BRCA) - mutant high-grade serous ovarian carcinoma (HGSC). […] 6; Detection; Luminescence, PHERAstar (BMG Labtech) plate reader. […] 6. Luminescence readings were taken using PHERAstar (BMG Labtech). […]
One number for each entry.

# annotated cases, reported Z-AUC shown
>  <compound>
CCc1cc(C(N)=S)ccn1

>  <readout-number>
-0.0543

$$$$
>  <compound>
O=S(=O)(c1cccc2cnccc12)N1CCCNCC1

>  <readout-number>
-0.265

$$$$
>  <compound>
O=C(NCC1CN(c2ccc(N3CCOCC3=O)cc2)C(=O)O1)c1ccc(Cl)s1 (stereo unspecified)

>  <readout-number>
-0.579

$$$$
>  <compound>
Cc1nnc(C(=O)NC(C)(C)c2nc(C(=O)NCc3ccc(F)cc3)c(O)c(=O)n2C)o1

>  <readout-number>
-0.195

$$$$
>  <compound>
Clc1ccccc1CN1CCc2sccc2C1

>  <readout-number>
0.0683

$$$$

For each entry beneath this line, provide reported Z-AUC.
1. CN(C)CCc1c[nH]c2ccc(CS(=O)(=O)N3CCCC3)cc12
2. COCCCOc1cc(C[C@@H](C[C@H](N)[C@@H](O)C[C@H](C(=O)NCC(C)(C)C(N)=O)C(C)C)C(C)C)ccc1OC
3. Nc1[nH]c(=O)ncc1F
4. CCCCS(=N)(=O)CCC(N)C(=O)O (stereo unspecified)
5. C[C@]12C=CC(=O)C=C1CC[C@@H]1[C@@H]2C(=O)C[C@@]2(C)[C@H]1CC[C@]2(O)C(=O)CO
6. COc1ncnc(NS(=O)(=O)c2ccc(N)cc2)c1OC

Response given:
1: 1.58; 2: 1.52; 3: 1.6; 4: 0.0714; 5: -0.762; 6: 1.63

Sourced from PubChem BioAssay (NCATS)
